# System: MOLT-4 leukemia
# Experiment Description: NCI-60 one-dose screen, 48 h
# Conditions: 10 µM unless noted
About 83,000 compounds went through this panel and 20% of them were active in at least one assay; those are over-represented in the sample as a whole. The source made the active and inactive calls. How the source made its calls: active means growth percent below 10; inactive means the rest.
Output constraint: value belongs to t for active, f for inactive

Name the outcome recorded for `Cc1nc(-c2cc3ccccc3oc2=O)ccc1C(=O)/C=C/c1ccccn1` in the assay.
f

Name the outcome recorded for `CC(C)(C)Nc1nc2c(OCCc3ccccc3)cccn2c1-c1ccc(Cl)cc1` in the assay.
t

Name the outcome recorded for `COc1ccc(/C=N/Nc2ccnc3cc(Cl)ccc23)cc1Cl` in the assay.
t

Name the outcome recorded for `COc1ccc(-n2c(SCC(=O)Nc3ccc(-c4nc5ccccc5[nH]4)cc3)nc3ccccc3c2=O)cc1` in the assay.
f

Name the outcome recorded for `Nc1ncc(-c2ccc3ncnc(N4CCc5cc(F)c(Cl)cc54)c3c2)cc1CO` in the assay.
t

Name the outcome recorded for `O=C(N/N=C/c1cccs1)c1[nH]c2ccc(Br)cc2c1-c1ccccc1` in the assay.
f

Name the outcome recorded for `O=C(CSc1nccc(=O)[nH]1)Nc1ccc(-c2nc3ccccc3[nH]2)cc1` in the assay.
f

Name the outcome recorded for `Clc1ccc2c(NCCCN3CCOCC3)c3oc4ccc(Cl)cc4c3nc2c1` in the assay.
f

Name the outcome recorded for `COc1ccc(-c2nc3ccc(-c4nnc(SCC(=O)Nc5ccc(C(=O)/C=C/c6ccc(Cl)cc6)cc5)o4)cc3[nH]2)cc1OC` in the assay.
f

Name the outcome recorded for `CC(C)(O)c1cncc(-c2ccc3ncnc(N4CCc5cc(F)c(Cl)cc54)c3c2)c1` in the assay.
t

====

# Tested on: MALME-3M melanoma
# Experiment Description: NCI-60 one-dose screen, 48 h (100 = growth as untreated, 0 = no growth, -100 = all killed)
# Conditions: 10 µM unless noted
About 83,000 compounds went through this panel and 20% of them were active in at least one assay; those are over-represented in the sample as a whole.
The label Satisfied is reserved for growth strictly under 90%; Not satisfied covers values equal to or above it.

Is growth of `Cc1sc2nc(NCc3ccccc3Cl)[nH]c(=O)c2c1C` strictly below 90%?
Not satisfied

Is growth of C#Cc1nc(C2=C(C)C(O)CC2)cs1 (stereo not given) strictly below 90%?
Not satisfied

Is growth of `C#Cc1nc(C2=C(C)C(=N\O)/C(=N/O)C2)cs1` strictly below 90%?
Not satisfied

Is growth of `CCOC(=O)c1c(Nc2ccccc2)nn2c(N)c(C#N)c(-c3ccc(OC)cc3)nc12` strictly below 90%?
Satisfied

Is growth of `CCN1CCN(/C(=N\c2sc(-c3ccccc3)nc2-c2ccccc2)c2ccccc2)CC1` strictly below 90%?
Not satisfied

Is growth of `Clc1ccc2oc3c(NCCCN4CCOCC4)c4ccccc4nc3c2c1` strictly below 90%?
Satisfied

Is growth of `CCOC(=O)c1sc(NCC(=O)Nc2cccc([N+](=O)[O-])c2)c(C(=O)OCC)c1C` strictly below 90%?
Satisfied

Is growth of C#Cc1nc(C2=C(C)C(O)/C(=N/O)C2)cs1 (stereo not given) strictly below 90%?
Not satisfied

Is growth of `Clc1ccc2oc3c(NCCCn4ccnc4)c4ccccc4nc3c2c1` strictly below 90%?
Satisfied

Is growth of `CNC(=O)c1cc(-c2ccc(NC(=O)Nc3ccc(N4CCOCC4)c(C(F)(F)F)c3)cc2)nc2cccnc12` strictly below 90%?
Satisfied

Is growth of `NS(=O)(=O)c1cccc(Nc2nc(SCC(=O)c3ccc([N+](=O)[O-])cc3)nc3ccccc23)c1` strictly below 90%?
Satisfied

Is growth of `COc1ccc(Cc2nn(CC(=O)N/N=C/c3ccc(Cl)cc3)c(=O)c3c(C)noc23)cc1` strictly below 90%?
Not satisfied

Is growth of `COc1ccc(C(=O)/C=C/c2ccc(OCc3ccc(Cl)cc3)c(OC)c2)cc1OC` strictly below 90%?
Satisfied

Is growth of `COc1cc(/C=C/C(=O)c2cc(OC)c(OC)c(OC)c2)ccc1OCc1ccc(F)cc1` strictly below 90%?
Satisfied

Is growth of `Cn1ccnc1C(=O)/C=C/c1ccc(NC(=O)Nc2ccc(Cl)cc2)cc1` strictly below 90%?
Satisfied

Is growth of `Fc1ccc(-c2cc3nc(C(Cl)Cl)nc(-c4ccccc4)n3n2)cc1` strictly below 90%?
Satisfied

Is growth of O=C(c1ccc(O)cc1)C1[C@H](c2ccc(Cl)cc2)[C@@H](c2ccccc2)NC12C(=O)Nc1ccc(Cl)cc12 (stereo not given in full) strictly below 90%?
Satisfied

Is growth of `COc1ccc(/C=C/C(=O)c2ccc(NC(=O)CSc3nnc(-c4ccc5nc(-c6ccc(Cl)cc6)[nH]c5c4)o3)cc2)cc1` strictly below 90%?
Not satisfied

Is growth of `O=C(CSc1nc2sc3c(c2c(=O)n1-c1ccc(Cl)cc1)CCCC3)N/N=C/c1ccc(F)cc1` strictly below 90%?
Not satisfied

====

# Tested on: SR leukemia
# Experiment Description: NCI-60 one-dose screen, 48 h
# Conditions: 10 µM unless noted
About 83,000 compounds went through this panel and 20% of them were active in at least one assay; those are over-represented in the sample as a whole. The source made the active and inactive calls. Rule for the calls: active = growth percent below 10; inactive = the rest.
Output constraint: value belongs to 1 (active), -1 (inactive)

Name the outcome recorded for `COc1cc(-c2nc3ccc(-c4nnc(SCC(=O)Nc5ccc(C(=O)/C=C/c6ccc(Cl)cc6)cc5)o4)cc3[nH]2)cc(OC)c1OC` in the assay.
-1

Name the outcome recorded for `COc1ccc(-n2c(SCC(=O)Nc3ccc(-c4nc5ccccc5[nH]4)cc3)nc3ccccc3c2=O)cc1` in the assay.
1

Name the outcome recorded for `COC(=O)C1CN(S(=O)(=O)/N=C2\NC(=O)NC2=C(Cl)Cl)C1` in the assay.
-1

Name the outcome recorded for `OC1CCN(CCCOc2c3ccc(Cl)cc3nc3c2oc2ccc(Cl)cc23)CC1` in the assay.
1

Name the outcome recorded for `O=c1[nH]c2ccc(Cl)cc2cc1CSc1ccccc1Nc1nccc(-c2ccc(Cl)cc2)n1` in the assay.
-1

====

# Test system: HOP-92 NSCLC
# Experiment Description: NCI-60 one-dose screen, 48 h
# Conditions: 10 µM unless noted
This is part of a sample that, as a whole, favours compounds with a hit. Of some 83,000 tested, about 20% had one in any assay. Calls of active or inactive are those of the source. The calls were made as follows: active = growth percent below 10; inactive = the rest.
Output constraint: value belongs to T = active, F = inactive

Name the outcome recorded for `Cn1ccnc1C(=O)/C=C/c1ccc(NC(=O)Nc2ccc(F)cc2)cc1` in the assay.
F

Name the outcome recorded for `CN(C)S(=O)(=O)c1oc(-c2ccccc2)nc1C#N` in the assay.
F

Name the outcome recorded for `CC1=C(C)C(=O)C(Nc2cccc(C(F)(F)F)c2)=C(Cl)C1=O` in the assay.
F

Name the outcome recorded for `N/C(=N\c1nc2c(Cl)cc(Cl)cc2s1)C(Cl)(Cl)Cl` in the assay.
F

Name the outcome recorded for `Cc1cc(=O)oc2cc(OCCCOc3ccc(/C=C/C(=O)Nc4ccc(Cl)cc4)cc3)ccc12` in the assay.
F

Name the outcome recorded for COC(=O)C1CCCN(S(=O)(=O)/N=C2\NC(=O)NC2=C(Cl)Cl)C1 (configuration not stated) in the assay.
F

Name the outcome recorded for `COc1cc(/C=C/C(=O)c2ccc(C(F)(F)F)cc2)ccc1Oc1nc(NCCO)nc(N2CCOCC2)n1` in the assay.
F

Name the outcome recorded for `O=c1/c(=C\c2ccc(-c3ccccc3)o2)sc2nc(-c3ccccc3)nn12` in the assay.
F

Name the outcome recorded for `N=C1CC(=O)NN1C(=O)CSc1nc2sc3c(c2c(=O)n1-c1ccc(Cl)cc1)CCCC3` in the assay.
F

Name the outcome recorded for `C=CCn1c(SCC(=O)c2ccc(Br)cc2)nnc1-c1c[nH]c2ccccc12` in the assay.
F

Name the outcome recorded for C=C1CC[C@H]2[C@@](C)(CCC3OC(c4ccc(OCc5cn(C6CC(OC(C)=O)C(OC(C)=O)C(COC(C)=O)O6)nn5)cc4)OC[C@]32C)[C@@H]1/C=C/C1=CCOC1=O (some centres not stated) in the assay.
F

Name the outcome recorded for `N#Cc1ccc(C(=O)CSc2nc(Nc3ccc(S(N)(=O)=O)cc3)c3ccccc3n2)cc1` in the assay.
F

Name the outcome recorded for CC(O)C(NC(=O)C1CCCN1C(=O)CNC(=O)C1CC(=O)NCC(=O)NC(Cc2c[nH]c3ccccc23)C(=O)NC(Cc2ccc(O)cc2)C(=O)NCC(=O)NC(CO)C(=O)NC(CCC(N)=O)C(=O)NC(Cc2c[nH]c3ccccc23)C(=O)N1)C(=O)NCC(=O)NC(CCC(N)=O)C(=O)NC(CCCNC(=N)N)C(=O)NC(CC(=O)O)C(=O)O (configuration not stated) in the assay.
F

Name the outcome recorded for `CC1=C(C)C(=O)C(Nc2ccccc2)=C(Cl)C1=O` in the assay.
F

Name the outcome recorded for `COc1ccc(COc2ccc(/C=C3/C(=O)Nc4cc(Cl)ccc43)cc2)cc1` in the assay.
F

Name the outcome recorded for `O=C1Nc2cc(Cl)ccc2/C1=C\c1ccc(OCc2ccc(Br)cc2F)cc1` in the assay.
T

Name the outcome recorded for Nc1nc(N)c2c(n1)NC(c1ccc(F)cc1)CC(c1ccc(Nc3nc(NCCO)nc(Nc4ccc(Cl)cc4)n3)cc1)=N2 (configuration not stated) in the assay.
T

Name the outcome recorded for `CN(C)c1ccc(-c2c(NC(C)(C)C)nc3c(OCCc4ccccc4)cccn23)cc1` in the assay.
T

Name the outcome recorded for `Clc1ccc(Cc2nnc3sc(-c4cccnc4)nn23)cc1` in the assay.
F

Name the outcome recorded for `CN(C)CCCNc1c2ccc(Cl)cc2nc2c1oc1ccc(Cl)cc12` in the assay.
F

Name the outcome recorded for `N#Cc1nc(-c2ccccc2)oc1S(N)(=O)=O` in the assay.
F

Name the outcome recorded for `O=C(N/N=C/c1ccc([N+](=O)[O-])o1)c1[nH]c2ccc(Br)cc2c1-c1ccccc1` in the assay.
T

Name the outcome recorded for `CC(C)(C)OC(=O)N1C(=O)c2c(c3c4ccccc4[nH]c3c3ccc4ccccc4c23)C1=O` in the assay.
F

Name the outcome recorded for CN1C(=O)N(c2ccccc2)C2N=C(N/N=C/c3ccccc3)SC21 (configuration not stated) in the assay.
F

Name the outcome recorded for `CC(C)(O)c1cncc(-c2ccc3ncnc(N4CCc5cc(F)c(Cl)cc54)c3c2)c1` in the assay.
T

Name the outcome recorded for `O=C(N/N=C/c1ccc[nH]1)c1[nH]c2ccc(Br)cc2c1-c1ccccc1` in the assay.
F

Name the outcome recorded for `COc1cc(N=Cc2sc(Nc3nccs3)nc2O)cc(OC)c1OC` in the assay.
F

Name the outcome recorded for `CN(C)c1ccc(/C=c2\sc3nc4ccccc4n3c2=O)cc1` in the assay.
F

Name the outcome recorded for `Cc1sc2nc(NCc3ccccc3Cl)[nH]c(=O)c2c1C` in the assay.
F

Name the outcome recorded for `CN1CCN(Cc2ccc(NC(=O)c3cncc(C#Cc4cnc5ccc(N6CCSCC6)nn45)c3)cc2C(F)(F)F)CC1` in the assay.
T

Name the outcome recorded for `Cc1cc(C(=O)Nc2sc3c(c2C(N)=O)CCC(=O)C3)ccc1OCCN1CCCCC1` in the assay.
F

Name the outcome recorded for `COc1ccc(NC(=O)c2sc3nc(-c4cnccn4)cc(-c4cccs4)c3c2N)cc1` in the assay.
F

Name the outcome recorded for `OC1CCN(CCCOc2c3ccccc3nc3c2oc2ccc(Cl)cc23)CC1` in the assay.
F

Name the outcome recorded for `OC1CCN(CCCOc2c3ccccc3nc3c2oc2ccccc23)CC1` in the assay.
T

Name the outcome recorded for `N#Cc1ccc(/C=N/NC(=O)c2[nH]c3ccc(Br)cc3c2-c2ccccc2)s1` in the assay.
F

Name the outcome recorded for `CCN1CCN(S(=O)(=O)c2oc(-c3ccc(Cl)cc3)nc2C#N)CC1` in the assay.
F

Name the outcome recorded for `[Cl][Ru].c1ccc(-c2cc(-c3ccccn3)nc(-c3ccccn3)c2)cc1.c1ccc(-c2ccnc3c2ccc2c(-c4ccccc4)ccnc23)cc1` in the assay.
T

Reference source for all entries: PubChem BioAssay (NCI)
